- Tested on: Staphylococcus aureus
- method: Antimicrobial activity against Staphylococcus aureus ATCC 13709 by agar-dilution streak method
- Assay type: functional
quantityMeasured: Activity (µg/mL)

INSERT INTO assay_data (compound, reading) VALUES
  ('Cc1cc(O)cc2oc3cc(O)c4c(c3c12)C(O)OC4=O (stereo not given)', 25),
  ('CN[C@@H]1[C@H](O[C@H]2[C@H](O[C@H]3[C@H](O)[C@@H](O)[C@H](N=C(N)N)[C@@H](O)[C@@H]3N=C(N)N)O[C@@H](C)[C@]2(O)C=O)O[C@@H](CO)[C@H](O)[C@H]1O.CN[C@@H]1[C@H](O[C@H]2[C@H](O[C@H]3[C@H](O)[C@@H](O)[C@H](N=C(N)N)[C@@H](O)[C@@H]3N=C(N)N)O[C@@H](C)[C@]2(O)C=O)O[C@@H](CO)[C@H](O)[C@H]1O.O=S(=O)(O)O.O=S(=O)(O)O.O=S(=O)(O)O [STREPTOMYCIN SULFATE]', 5),
  ('CCCCCc1cc2cc(O)cc(Oc3c(O)cc(O)c4c3CC(CCCCC)(OCC)OC4=O)c2c(=O)o1 (stereo not given)', 50),
  ('CCCCCC(=O)Cc1cc(O)cc2c1C(=O)Oc1cc(O)c(C(=O)O)c(CCCCC)c1O2', 25),
  ('CC(=O)C1=C(O)C=C2Oc3c(C(C)=O)c(O)c(C)c(O)c3[C@]2(C)C1=O [(-)-USNIC ACID]', 25);

Data provenance: ChEMBL document CHEMBL1148043
